These measurements were taken from patent US20130012451A1.

pIC50: −log10 of the molar value. Where no end group is shown, it is not given here.
// values below are pIC50; system is MMP-9-induced cell migration of transfected COS-1 cells

[
  {
    "Macromolecule Sequence": "NQVDQVGY [IVS4 peptide, NQVDQVGY]",
    "Assay System": "MMP-9-induced cell migration of transfected COS-1 cells",
    "pIC50": 4.30
  },
  {
    "Macromolecule Sequence": "SRPQGPFL [IS4 peptide, SRPQGPFL]",
    "Assay System": "MMP-9-induced cell migration of transfected COS-1 cells",
    "pIC50": 4.92
  }
]
